Listing of entries alongside the reported Drug uptake.
- Experiment Description: Biodistribution in male ddY mouse lung administered intravenously and measured at 10 mins postinjection by gamma counter analysis
- Format: ADME, organism-based
- Protocol Conditions: in vivo, iv
Supply the numeric figure in % ID/g, leaving out any unit text.

Kindly note the recorded Drug uptake for Cc1ccc(-n2nccn2)c(C(=O)N2CCCN(c3nc4ccc([18F])cc4s3)C[C@@H]2C)c1 , which is 3.43

Kindly note the recorded Drug uptake for C[C@H]1CN(c2nc3ccc(F)cc3s2)CCCN1C(=O)c1cc([18F])ccc1-n1nccn1 , which is 3.39

Kindly note the recorded Drug uptake for Cc1ccc(-n2nccn2)c(C(=O)N2CCCN(c3nc4cc([18F])ccc4s3)C[C@@H]2C)c1 , which is 5.68

Kindly note the recorded Drug uptake for C[C@H]1CN(c2nc3ccccc3s2)CCCN1C(=O)c1cc([18F])ccc1-n1nccn1 , which is 4.13

The measured values listed here are drawn from ChEMBL document CHEMBL6120977.
